Provenance of the data: patent US7803792B2

- Subject of test: human IBAT (Homo sapiens, UniProt Q12908)
- Sequence (Q12908 1-348): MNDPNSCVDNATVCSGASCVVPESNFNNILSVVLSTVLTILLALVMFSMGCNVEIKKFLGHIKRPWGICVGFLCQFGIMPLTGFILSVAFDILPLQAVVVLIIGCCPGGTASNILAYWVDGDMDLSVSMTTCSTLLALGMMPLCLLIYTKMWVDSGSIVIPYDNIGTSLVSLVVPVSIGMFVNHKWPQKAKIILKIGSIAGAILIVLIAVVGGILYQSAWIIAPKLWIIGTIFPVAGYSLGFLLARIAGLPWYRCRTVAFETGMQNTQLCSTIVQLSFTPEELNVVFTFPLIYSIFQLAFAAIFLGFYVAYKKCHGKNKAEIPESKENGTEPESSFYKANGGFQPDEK
- Protocol: In vitro assay of temporarily expressed human IBAT transporter using Cos 7 cells (Test Example 8)
- Condition parameters: Cos 7 cells temporarily expressing human IBAT; [3H] taurocholate 8 μM, 37° C., 60 minutes
pIC50: −log10 of the molar value.
Property: pIC50

Consider the reported pIC50 for these compounds:
>>> reading("CCCCC1(CCCC)CS(=O)(=O)c2ccc(N(C)C)cc2C(c2cccc(NC(=S)Nc3cccc(C[n+]4cccc5cc(C)ccc54)c3)c2)N1 (stereo not drawn) [Example 4587]")
7.22
>>> reading("CCCCC1(CCCC)CS(=O)(=O)c2ccc(N(C)C)cc2C(c2cccc(NC(=S)Nc3ccc(C[n+]4cccc5cc(C(C)C)ccc54)cc3)c2)N1 (stereo not drawn) [Example 3772]")
7.05
>>> reading("CCCCC1(CCCC)CS(=O)(=O)c2ccc(N(C)C)cc2C(c2cccc(NC(=S)Nc3ccc(C[n+]4cccc(Cl)c4)cc3)c2)N1 (stereo not drawn) [Example 5418]")
7.16
>>> reading("CCCCC1(CCCC)CS(=O)(=O)c2ccc(N(C)C)cc2C(c2cccc(NC(=S)Nc3ccc(C[n+]4cccc(C(=O)c5ccccc5)c4)cc3)c2)N1 (stereo not drawn) [Example 3748]")
7.09

[I] CCCCC1(CCCC)CS(=O)(=O)c2ccc(N(C)C)cc2C(c2cccc(NC(=S)Nc3cccc(C[N+](C)(C)C(C)c4cccc5ccccc45)c3)c2)N1 (stereo not drawn) [Example 4605]
[II] CCCCC1(CCCC)CS(=O)(=O)c2ccc(N(C)C)cc2C(c2cccc(NC(=S)Nc3ccc(C[n+]4ccc(C(C)(C)C)cc4)cc3)c2)N1.[Br-] (stereo not drawn) [Example 3713]
## Task Please choose the item with the lower pIC50 value from this pair: I and II Bench note: the answer is the label of the chosen record.
## Result I
(I: 7.10, II: 7.43)
